- tested_system: T1, human CD25 (NP_000408.1) (Met 1-Cys 213) C-terminally fused with 6-histidine tag (human, UniProt P01589 22-213)
- T1 construct: range 1-213; Expressed in CHO-K1 cells; also called human CD25-his
- T1 sequence: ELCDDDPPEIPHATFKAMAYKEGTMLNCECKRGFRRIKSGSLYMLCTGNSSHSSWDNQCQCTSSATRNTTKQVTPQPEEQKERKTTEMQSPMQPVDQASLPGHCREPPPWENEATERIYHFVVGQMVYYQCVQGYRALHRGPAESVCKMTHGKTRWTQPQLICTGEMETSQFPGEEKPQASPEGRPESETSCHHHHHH
- method_summary: ELISA, human CD25-his coated
endpoint_name: EC50
// unit must come after the numeric part

Previously resolved entries follow.
binder="chimeric antibody 2047-10H1L2 (antibody, human IgG1, kappa, V domains shown, Chimeric, human IgG1/kappa; also called 2047-10ix) VH: QVQLQQSGPELVRPGVSVKISCKGSGYTFTDYAMHWVKQSHAKSLEWIGVISTYNGNTNYNQKFKGKATMTVDKSSSTAYMELARLTSEDSAIYYCARSYGNYPFDYWGQGTTLTVSS VL: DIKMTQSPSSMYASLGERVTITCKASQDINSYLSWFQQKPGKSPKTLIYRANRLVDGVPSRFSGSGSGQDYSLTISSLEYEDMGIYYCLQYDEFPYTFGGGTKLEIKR" endpoint_name=EC50 result="0.186 µg/mL"
binder="chimeric antibody 2046-18H1L1 (antibody, human IgG1, kappa, V domains shown, Chimeric, human IgG1/kappa; also called 2046-18ix) VH: DVQLQESGPGLVKPSQSLSLTCTVTGYSITSDYAWNWIRQFPGNKLEWMGYISYSGITIYNPSLKSRISITRDTSKNQFFLQLNSVTTEDTATYYCARWLLQIYYAMDYWGQGTSVTVSS VL: DVVMTQTPLSLPVSLGDQASISCSSSQSLVHSNGNTYLHWYLHKPGQSPKLLIYKVSNRFSGVPDRFSGSGSGTDFTLKISRVEAEDLGVYFCSQSTHVPLTFGAGTKLELKR" endpoint_name=EC50 result="0.102 µg/mL"
binder="chimeric antibody 2046-24H2L1 (antibody, human IgG1, kappa, V domains shown, Chimeric, human IgG1/kappa; also called 2046-24ix) VH: DVQLQESGPGLVKPSQSLSLTCTVTGYSITSDYAWNWIRQFPGNKLEWMGYISYGGTTIYNPSLKSRISITRDTSKNQFFLQLNSVTTEDTATYYCARWLLQNYYAMDYWGQGTSVTVSS VL: DVVMTQTPLSLPVSLGDQASISCRSSQSLVHSNGNTYLHWYLQKPGQSPKVLIYKVSNRFSGVPDRFSGSGSGTDFTLKISRVEAEDLGVYFCSQNTHVPLTFGAGTKLELKR" endpoint_name=EC50 result="0.106 µg/mL"

Okay, next one:
### Prompt # get_value(readout='EC50', item= chimeric antibody 2047-3H8L2 (antibody, human IgG1, kappa, V domains shown, Chimeric, human IgG1/kappa; also called 2047-3ix) VH: QVQLKQSGAELVKPGASVKMSCKTSGYTFTDYVISWVKQRTGQGLEWIGEIYPGSGSTYYNEKFKGKATLTADISSNTAYMQLSSLTSEDSAVYFCASINFDYWGHGTTLTVSS VL: DIVMTQSPATLSVTPGDRVSLSCRASQSISDYLHWYQQKSHESPRLLIKYASQSISGIPSRFSGSGSGSDFTLSINSVEPEDVGVYYCQNGHSFPYTFGGGTKLEIKR )
### Response 0.111 µg/mL
